Provenance of the data: paper PMC8041284

Target: BTK (Homo sapiens, UniProt Q06187)
Sequence (Q06187 402-655 limits assumed): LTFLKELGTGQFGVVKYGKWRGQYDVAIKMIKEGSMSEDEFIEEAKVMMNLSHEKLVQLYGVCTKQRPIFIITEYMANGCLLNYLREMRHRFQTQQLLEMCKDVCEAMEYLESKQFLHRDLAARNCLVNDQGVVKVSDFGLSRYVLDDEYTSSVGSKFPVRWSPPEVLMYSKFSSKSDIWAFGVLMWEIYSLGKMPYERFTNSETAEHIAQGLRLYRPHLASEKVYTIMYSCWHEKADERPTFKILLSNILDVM
Test: biochemical
Details: read-out: BTK inhibition (%), 0.75 uM BTK, […] probe 3l, 15 min preincubation
Provide the recorded inhibition at 10 µM for the entries that follow.
One number for each entry, in %.

>  <Chemical smiles>
C=C[C@@H]1CNC(=S)O1

>  <Unit name>
%

>  <Value reported>
-6.2

$$$$
>  <Chemical smiles>
CC(=O)c1ccc(O)c(C(=O)O)c1

>  <Unit name>
%

>  <Value reported>
-9.3

$$$$
>  <Chemical smiles>
CN(C)[C@@H]1C(=O)C(C(N)=O)=C(O)[C@@]2(O)C(=O)C3=C(O)c4c(O)cccc4[C@@](C)(O)[C@H]3[C@H](O)[C@@H]12

>  <Unit name>
%

>  <Value reported>
35.8

$$$$

Proceed to the following item.
Task item: // query inhibition at 10 µM value for entry Cc1cc(=O)c2c(O)c3c(cc2o1)OC(C)(C)[C@@H](O[C@@H]1O[C@H](CO)[C@@H](O)[C@H](O)[C@H]1O)C3
Reply: -30.1
